The measurements presented in this section are drawn from patent US11472778B2.

This listing pairs compounds with measured log10 of Ki.
- Tested System: GT1a R155K NS3/4A protease (UniProt P27958, R1181K, species not given)
- Format: biochemical, Hepatitis C virus
- Experimental Context: read-out: Ki R155K; R155K variant
// stored as log10 of Ki expressed in nM

Solved entries (count: 3):
| Compound | Obs Value |
| --- | --- |
| C=C[C@@H]1C[C@]1(NC(=O)[C@@H]1C[C@@H](Oc2nc3cc(OC)ccc3nc2C(C)C)CN1C(=O)[C@@H](NC(=O)OC1CCCC1)C(C)(C)C)C(=O)NS(=O)(=O)C1(C)CC1 [Compound 12c] | 1.63 |
| C=C[C@@H]1C[C@]1(NC(=O)[C@@H]1C[C@@H](Oc2nc3cc(OC)ccc3nc2C(F)(F)F)CN1C(=O)[C@@H](NC(=O)OC1CCCC1)C(C)(C)C)C(=O)NS(=O)(=O)C1(C)CC1 [Compound 12e] | 1.34 |
| C=C[C@@H]1C[C@]1(NC(=O)[C@@H]1C[C@@H](Oc2nc3cc(OC)ccc3nc2C(F)(F)F)CN1C(=O)[C@@H](NC(=O)OC1CCCC1)C(C)(C)C)C(=O)NS(=O)(=O)C1CC1 [Compound 11e] | 1.41 |

Attention now shifts to the item below.
Q) Provide one value: measured log10 of Ki of C=C[C@@H]1C[C@]1(NC(=O)[C@@H]1C[C@@H](Oc2nc3cc(OC)ccc3nc2C)CN1C(=O)[C@@H](NC(=O)OC(C)(C)C)C(C)(C)C)C(=O)NS(=O)(=O)C1(C)CC1 [Compound 10b]
A) 1.15

====

- Tested System: wild-type GT1a NS3/4A protease (UniProt P27958)
- Construct: Ki WT; other: wild-type HCV NS3/4A protease
- Type: biochemical, Hepatitis C virus
- Experimental Context: read-out: Ki WT; wild-type HCV NS3/4A protease
Friendly reminder: Ki below 20 nM is 1, at or above is -1.

Examples with answers:
| Compound | Label Value |
| --- | --- |
| C=C[C@@H]1C[C@]1(NC(=O)[C@@H]1C[C@@H](Oc2nc3cc(OC)ccc3nc2Cl)CN1C(=O)[C@@H](NC(=O)OC(C)(C)C)C(C)(C)C)C(=O)NS(=O)(=O)C1(C)CC1 [Compound 10d] | 1 |
| C=C[C@@H]1C[C@]1(NC(=O)[C@@H]1C[C@@H](Oc2nc3cc(OC)ccc3nc2C(F)(F)F)CN1C(=O)[C@@H](NC(=O)OC(C)(C)C)C(C)(C)C)C(=O)NS(=O)(=O)C1(C)CC1 [Compound 10e] | -1 |
| C=C[C@@H]1C[C@]1(NC(=O)[C@@H]1C[C@@H](Oc2nc3cc(OC)ccc3nc2CC)CN1C(=O)[C@@H](NC(=O)OC(C)(C)C)C(C)(C)C)C(=O)NS(=O)(=O)C1(C)CC1 [Compound 10a] | 1 |
| C=C[C@@H]1C[C@]1(NC(=O)[C@@H]1C[C@@H](Oc2nc3cc(OC)ccc3nc2C(F)(F)F)CN1C(=O)[C@@H](NC(=O)OC1CCCC1)C(C)(C)C)C(=O)NS(=O)(=O)C1(C)CC1 [Compound 12e] | -1 |
| C=C[C@@H]1C[C@]1(NC(=O)[C@@H]1C[C@@H](Oc2nc3cc(OC)ccc3nc2CC)CN1C(=O)[C@@H](NC(=O)OC1CCCC1)C(C)(C)C)C(=O)NS(=O)(=O)C1(C)CC1 [Compound 12a] | 1 |

Q) Please determine if C=C[C@@H]1C[C@]1(NC(=O)[C@@H]1C[C@@H](Oc2nc3cc(OC)ccc3nc2C)CN1C(=O)[C@@H](NC(=O)OC1CCCC1)C(C)(C)C)C(=O)NS(=O)(=O)C1CC1 [Compound 11b] is below 20 nM in terms of Ki.
A) 1
